# Test system: IGROV1 ovarian
# assayDetails: NCI-60 one-dose screen, 48 h
# statedConditions: 10 µM unless noted
This is part of a sample that, as a whole, favours compounds with a hit. Of some 83,000 tested, about 20% had one in any assay. Active and inactive are the calls of the source. Rule for the calls: active = growth percent below 10; inactive = the rest.
Can you answer with just one of these options? active, inactive

[[record]]
compound = "COC(=O)[C@]12CC[C@@H](C)[C@H](C)[C@@H]1C1=CC[C@@H]3[C@@]4(C)C[C@@H](OC(C)=O)[C@H](O)[C@@](C)(CO)[C@@H]4[C@H](O)C[C@@]3(C)[C@]1(C)CC2"
assignedclass = "active"

[[record]]
compound = "CC(C)c1cc(C(=O)O)c(O)c(C(C)C)c1.CC(C)c1cc(C(=O)O)c(O)c(C(C)C)c1.[Mn]"
assignedclass = "inactive"

[[record]]
compound = "Nc1nc(Br)nc2c1ncn2C1CC(O)C(CO)O1 (centres undefined)"
assignedclass = "inactive"


Challenge: Short answer needed: outcome of this test for Nc1nc2c(c(=O)[nH]1)C(c1ccc3c(c1)OCO3)C=C(C(=O)O)N2 (centres undefined) ?
Response given: inactive
